src = patent US4464378A

Assay: in vivo
Settings: rat, plasma, iv, 0.03 mg, Plasma Level, Mean, 30 μg/rat, 10 min, mean of 3 rats
assay metric: concentration at 10 min (ng/mL)
Give a bare numeral; the unit ng/mL is implied.

# concentration at 10 min lookup, item `C=CCN1CC[C@]23c4c5ccc(O)c4O[C@H]2C(=O)CC[C@@]3(O)[C@H]1C5` 19.6

---

Test: in vivo
Conditions: rat, plasma, 0.03 mg, Plasma Level, nasal, 30 μg/rat, 10 min, individual rats I, II, III
assay metric: concentration at 10 min

# concentration at 10 min lookup, item `C=CCN1CC[C@]23c4c5ccc(O)c4O[C@H]2C(=O)CC[C@@]3(O)[C@H]1C5` 45.3 ng/mL

---

Assay: in vivo
Settings: rat, plasma, 0.03 mg, Plasma Level, nasal, 30 μg/rat, 5 min, individual rats I, II, III
assay metric: concentration at 5 min (ng/mL)
Give a bare numeral; the unit ng/mL is implied.

# concentration at 5 min lookup, item C=CCN1CC[C@]23c4c5ccc(O)c4O[C@H]2C(=O)CC[C@@]3(O)[C@H]1C5 [naloxone] 54.5

---

Assay: in vivo
Conditions: rat, plasma, 0.03 mg, Plasma Level, nasal, 30 μg/rat, 180 min, individual rats I, II, III
assay metric: concentration at 3 h (ng/mL)
Give a bare numeral; the unit ng/mL is implied.

# concentration at 3 h lookup, item `C=CCN1CC[C@]23c4c5ccc(O)c4O[C@H]2C(=O)CC[C@@]3(O)[C@H]1C5` 1.95

---

Experiment: in vivo
Details: rat, plasma, iv, 0.03 mg, Area under the blood level curve (AUC ^.infin.0), Mean, 30 μg/rat, mean of 3 rats
assay metric: AUC(0-inf) (ng·h/mL)
Give a bare numeral; the unit ng·h/mL is implied.

# AUC(0-inf) lookup, item C=CCN1CC[C@]23c4c5ccc(O)c4O[C@H]2C(=O)CC[C@@]3(O)[C@H]1C5 [naloxone] 25

---

Test: in vivo
Conditions: rat, plasma, 0.03 mg, Plasma Level, Mean, nasal, 30 μg/rat, 45 min, mean of 3 rats
assay metric: concentration at 0.75 h (ng/mL)
Give a bare numeral; the unit ng/mL is implied.

# concentration at 0.75 h lookup, item `C=CCN1CC[C@]23c4c5ccc(O)c4O[C@H]2C(=O)CC[C@@]3(O)[C@H]1C5` 7.96

---

Assay: in vivo
Details: rat, plasma, iv, 0.03 mg, Plasma Level, 30 μg/rat, 1 min, individual rats I, II, III
assay metric: concentration at 1 min (ng/mL)
Give a bare numeral; the unit ng/mL is implied.

# concentration at 1 min lookup, item C=CCN1CC[C@]23c4c5ccc(O)c4O[C@H]2C(=O)CC[C@@]3(O)[C@H]1C5 [naloxone] 102

---

Test: in vivo
Settings: rat, plasma, po, 0.03 mg, Plasma Level, Mean, oral (intraduodenal), 30 μg/rat, 120 min, mean of 3 rats
assay metric: concentration at 2 h
Write the numeric value and follow it with the unit.

# concentration at 2 h lookup, item `C=CCN1CC[C@]23c4c5ccc(O)c4O[C@H]2C(=O)CC[C@@]3(O)[C@H]1C5` 0.06 ng/mL

---

Assay: in vivo
Details: rat, plasma, iv, 0.03 mg, Plasma Level, Mean, 30 μg/rat, 60 min, mean of 3 rats
assay metric: concentration at 1 h
Write the numeric value and follow it with the unit.

# concentration at 1 h lookup, item `C=CCN1CC[C@]23c4c5ccc(O)c4O[C@H]2C(=O)CC[C@@]3(O)[C@H]1C5` 5.41 ng/mL
